We begin with a simple list: items and their reported interaction score.
# study-target: T1, P2A-bP
# T1 chain: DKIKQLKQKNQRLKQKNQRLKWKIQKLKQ
# test-method-notes: two-hybrid library CCNG1;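 further: natural log of median RNA to DNA barcode read ratio; higher means stronger binding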
value-type: interaction score

binder="DKNKQLKQENQRLEQKIQRLKWKIQKLKQ [P10A-bP]" observed_result=-1.7
binder="DENKQLEQEIQRLEQEIQRLEWKNQKLKQ [P11A-bP]" observed_result=-0.486
binder="DKNKQLKQKIQRLKQKIQRLKWENQKLEQ [P12A-bP]" observed_result=-1.47
binder="DEIKQLEQENQRLEQENQRLEWEIQKLEQ [P1A-bP]" observed_result=1.97
binder="DKIKQLKQKNQRLKQKNQRLKWKIQKLKQ [P2A-bP]" observed_result=0.0236
